I'd appreciate it if you could supply pIC50 values for the items below.
Assay System: human V1a receptor (Homo sapiens)
Construct: expressed in transfected cells; host or cells: CHO K1 (Chinese hamster ovary), also stably transfected with a modified aequorin
Sequence (P37288 whole entry): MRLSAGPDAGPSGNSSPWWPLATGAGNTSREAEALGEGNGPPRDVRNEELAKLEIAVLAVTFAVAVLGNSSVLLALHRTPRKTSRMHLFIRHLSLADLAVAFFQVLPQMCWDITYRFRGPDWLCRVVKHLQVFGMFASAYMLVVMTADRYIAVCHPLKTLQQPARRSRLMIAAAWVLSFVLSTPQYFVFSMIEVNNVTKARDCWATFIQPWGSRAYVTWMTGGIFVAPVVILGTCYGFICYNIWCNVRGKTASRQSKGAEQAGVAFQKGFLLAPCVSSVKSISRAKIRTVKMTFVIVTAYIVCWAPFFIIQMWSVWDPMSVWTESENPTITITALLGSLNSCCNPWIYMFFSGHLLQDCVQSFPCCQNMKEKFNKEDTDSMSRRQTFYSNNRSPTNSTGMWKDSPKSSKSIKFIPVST
Protocol Details: Cellular in vitro assay for vasopressin receptor activity (V1a, aequorin luminescence)
Assay type: cell-based
Experimental Context: CHO cell line with human V1a receptor, [Arg8]-vasopressin at EC50; values are for the prodrug as such; read-out: IC50 hV1a
Keep in mind that pIC50 stands for -log10 of concentration in molar terms.

Per the records, this molecule ( NC(=O)c1nc(Cn2nc(-c3ccc(Cl)cc3)n(C[C@H](OP(=O)([O-])O)C(F)(F)F)c2=O)nn1-c1ccccc1C(F)(F)F.[K+] [Example 12, Phosphate] ) has pIC50 equal to 7.78

Per the records, this molecule ( NC(=O)c1nc(Cn2nc(-c3ccc(Cl)cc3)n(C[C@H](OP(=O)([O-])O)C(F)(F)F)c2=O)nn1-c1ccccc1C(F)(F)F.[Na+] [Example 14, Phosphate] ) has pIC50 equal to 7.72

Per the records, this molecule ( NC(=O)c1nc(Cn2nc(-c3ccc(Cl)cc3)n(C[C@H](OP(=O)([O-])O)C(F)(F)F)c2=O)nn1-c1ncccc1Cl.[K+] [Example 18, Phosphate] ) has pIC50 equal to 7.47

Per the records, this molecule ( NC(=O)c1nc(Cn2nc(-c3ccc(Cl)cc3)n(C[C@H](OP(=O)([O-])O)C(F)(F)F)c2=O)nn1-c1ncccc1C(F)(F)F.[K+] [Example 3, Phosphate] ) has pIC50 equal to 8.21

Per the records, this molecule ( NC(=O)c1nc(Cn2nc(-c3ccc(Cl)cc3)n(C[C@H](OP(=O)([O-])O)C(F)(F)F)c2=O)nn1-c1ncccc1Cl.[Na+] [Example 20, Phosphate] ) has pIC50 equal to 7.40

Per the records, this molecule ( NC(=O)c1nc(Cn2nc(-c3ccc(Cl)cc3)n(C[C@H](OP(=O)([O-])[O-])C(F)(F)F)c2=O)nn1-c1ncccc1C(F)(F)F.[Ca+2] [Example 8, Phosphate] ) has pIC50 equal to 7.77

====

Assay System: human V1a receptor (Homo sapiens)
Construct: expressed in transfected cells; host or cells: CHO K1 (Chinese hamster ovary), also stably transfected with a modified aequorin
Protocol Details: Cellular in vitro assay for verification of prodrug conversion into drug (with/without alkaline phosphatase)
Format: cell-based
Experimental Context: human V1a CHO cells; without alkaline phosphatase; read-out: IC50 without AP
I'd appreciate it if you could supply IC50 values for the items below.
Give just the number in nM; leave the unit off.

Query NC(=O)c1nc(Cn2nc(-c3ccc(Cl)cc3)n(C[C@H](O)C(F)(F)F)c2=O)nn1-c1ncccc1Cl on human V1a receptor (Homo sapiens); IC50 returned: 1.7

Query NC(=O)c1nc(Cn2nc(-c3ccc(Cl)cc3)n(C[C@H](OP(=O)(O)O)C(F)(F)F)c2=O)nn1-c1ncccc1C(F)(F)F on human V1a receptor (Homo sapiens); IC50 returned: 13.1

Query NC(=O)c1nc(Cn2nc(-c3ccc(Cl)cc3)n(C[C@H](O)C(F)(F)F)c2=O)nn1-c1ccccc1C(F)(F)F on human V1a receptor (Homo sapiens); IC50 returned: 1.35

Query NC(=O)c1nc(Cn2nc(-c3ccc(Cl)cc3)n(C[C@H](O)C(F)(F)F)c2=O)nn1-c1ncccc1C(F)(F)F on human V1a receptor (Homo sapiens); IC50 returned: 1.25

Query NC(=O)c1nc(Cn2nc(-c3ccc(Cl)cc3)n(C[C@H](OP(=O)(O)O)C(F)(F)F)c2=O)nn1-c1ccccc1C(F)(F)F on human V1a receptor (Homo sapiens); IC50 returned: 11

Query NC(=O)c1nc(Cn2nc(-c3ccc(Cl)cc3)n(C[C@H](OP(=O)(O)O)C(F)(F)F)c2=O)nn1-c1ncccc1Cl on human V1a receptor (Homo sapiens); IC50 returned: 9.45
